Sourced from ChEMBL document CHEMBL3301361

- experiment: in vitro
- test_parameters: human, plasma, PPB
Class boundaries, taken from values of fraction unbound at 5 h, are as follows: bucket 1 (below 0.04), bucket 2 (0.04 to below 0.1), bucket 3 (0.1 or more)

[[record]]
compound = "CC(=O)Nc1cccc2c1c(S(=O)(=O)c1ccc(Cl)cc1)c(C)n2CC(=O)O"
class = "bucket 2"


(Q) Which bin, given its fraction unbound at 5 h, does Nc1ccc(S(=O)(=O)Nc2ccnn2-c2ccccc2)cc1 [SULFAPHENAZOLE] occupy?
(A) bucket 1

(Q) Which bin, given its fraction unbound at 5 h, does CCCCN(CCNCCc1ccc(O)c2[nH]c(=O)sc12)C(=O)CCOCCc1ccccc1 occupy?
(A) bucket 2

###

- experiment: in vitro
- test_parameters: human, microsomes
Would you mind telling me the reported microsomal CLint of each entry?

[[record]]
compound = "Cc1ccc(-c2nnc(SCC(=O)N3CCN(c4ccccc4)CC3)o2)cc1"
readout = "microsomal CLint"
measured_result = "> 150 µL/min/mg"


Value sought for every listed compound: microsomal CLint.
1. O=C(Nc1ccc(F)cc1)c1ccc(Cl)[n+]([O-])c1
2. N#CC1(NC(=O)[C@@H]2CCCC[C@H]2C(=O)N2CCN(c3nc4ccncc4s3)CC2)CC1
3. Cc1ccc(C(=O)N2CC3CNCC(C2)O3)cc1NC(=O)CC12CC3CC(CC(C3)C1)C2
4. CCNC(=O)C[C@H]1N=C(c2ccc(Cl)cc2)c2cc(OC)ccc2-n2c(C)nnc21
5. CC(C)Cn1c(=O)n(C)c(=O)c2cn(Cc3cccc4ccccc34)cc21
6. CC(C(=O)O)c1ccc(C(=O)c2cccs2)cc1 (stereo not given)
7. O=C(O)COc1cccc(C(=O)N2CCC(N3CCC(Oc4ccc(Cl)c(Cl)c4)CC3)CC2)c1

(A)
< 3 µL/min/mg
17.8 µL/min/mg
71.2 µL/min/mg
11.5 µL/min/mg
14 µL/min/mg
< 3 µL/min/mg
< 3 µL/min/mg

Value sought for every listed compound: microsomal CLint.
1. Cc1nn(-c2ccccc2)c(NC(=O)NS(=O)(=O)c2ccc(Cl)cc2)c1C#N
2. O=c1[nH]c2c(O)ccc([C@@H](O)CNCCc3ccccc3CNCCc3ccccc3F)c2s1
3. CNCC[C@@H](Oc1cc(C(F)(F)F)ccc1C#N)c1ccccc1
4. CCC[C@@H](CNC(=O)c1nc(Cl)c(N)nc1N)[N+](C)(C)CCCc1ccc(OC)cc1

(A)
1: < 3 µL/min/mg; 2: 27.5 µL/min/mg; 3: < 3 µL/min/mg; 4: 87.1 µL/min/mg

Value sought for every listed compound: microsomal CLint.
1. CC1CN(S(=O)(=O)c2ccccc2)CCN1Cc1cc(Cl)ccc1OCC(=O)O (stereo not given)
2. COc1cccc2c1c(NS(=O)(=O)c1ccc(Cl)s1)nn2Cc1cccc(CNC(=O)[C@H]2COCCN2)c1
3. Cc1nc(-c2ccc(OCC(C)C)c(C#N)c2)sc1C(=O)O
4. CC(C)(C)NS(=O)(=O)c1cncc(-c2ccc3nc(NC(=O)NCC(=O)N4CCCC4)nn3c2)c1
5. CC(NC(C)(C)C)C(=O)c1cccc(Cl)c1 (stereo not given)
6. CSc1nc(-c2ccccc2)nn1Cc1ccccc1
7. C[C@H]1CN(Cc2cc(Cl)ccc2OCC(=O)O)CCN1C(=O)Cc1cccc(Cl)c1
8. CN(C)S(=O)(=O)NC(=O)CCCc1c(-c2ccc(F)cc2)[nH]c2ccc(C#N)cc12

(A)
["< 3 µL/min/mg", "58.5 µL/min/mg", "< 3 µL/min/mg", "5 µL/min/mg", "12 µL/min/mg", "116 µL/min/mg", "< 3 µL/min/mg", "8.86 µL/min/mg"]

###

Would you mind telling me the reported log10(microsomal CLint) of each entry?
- experiment: in vitro
- test_parameters: human, liver microsomes
Please keep in mind that the values are log10 of microsomal CLint expressed in µL/min/mg.

Look over these answered cases.
[[record]]
compound = "CSCCC(NC(=O)c1cnccn1)c1nc2ccccc2[nH]1 (centres undefined)"
readout = "log10(microsomal CLint)"
measured_result = 1.49

[[record]]
compound = "O=C(NCC12CC3CC(CC(C3)C1)C2)c1ccnc(N2CCNCC2)c1Cl"
readout = "log10(microsomal CLint)"
measured_result = 1.86

[[record]]
compound = "Cc1cccc2c(CCNCc3cccc(CCNC[C@H](O)c4ccc(O)c5[nH]c(=O)sc45)c3)c[nH]c12"
readout = "log10(microsomal CLint)"
measured_result = 1.20

[[record]]
compound = "O=C(O)COc1ccc(C(F)(F)F)cc1CN1CCN(C(=O)c2ccccc2)CC1"
readout = "log10(microsomal CLint)"
measured_result = 0.67

[[record]]
compound = "CCN(CCNCCc1ccc(O)c2[nH]c(=O)sc12)C(=O)CCOCCc1ccccc1"
readout = "log10(microsomal CLint)"
measured_result = 1.91

[[record]]
compound = "CC1(C)S[C@@H]2[C@H](NC(=O)C(C(=O)O)c3ccccc3)C(=O)N2[C@H]1C(=O)O (some centres undefined) [CARBENICILLIN]"
readout = "log10(microsomal CLint)"
measured_result = 0.84

[[record]]
compound = "Cc1cc(F)ccc1-n1nc(C(F)(F)F)cc1-c1ccc2c(c1)NC(=O)CO2"
readout = "log10(microsomal CLint)"
measured_result = 1.16

[[record]]
compound = "O=C(O)C(c1ccccc1)N1CCC(N2CCC(Oc3ccc(Cl)c(Cl)c3)CC2)CC1 (centres undefined)"
readout = "log10(microsomal CLint)"
measured_result = 0.78


Value sought for every listed compound: log10(microsomal CLint).
1. CCOC(=O)/C=C/[C@H](C[C@@H]1CCNC1=O)NC(=O)[C@@H](CC(=O)[C@@H](NC(=O)c1cc(C)on1)C(C)C)Cc1ccc(F)cc1
2. COc1ccnc(CSc2nc3ccccc3[nH]2)c1
3. CSc1nccc(Nc2cc(NC(=O)c3cc(F)cc(N4CCOCC4)c3)ccc2C)n1
4. C[C@H](Cc1cccc(CC(=O)NC23CC4CC(CC(C4)C2)C3)c1)NC[C@H](O)c1ccc(O)c(CO)c1

(A)
2.02
1.93
1.92
2.11

Measured log10(microsomal CLint) of O=S(=O)(c1ccccc1)N1CCN(Cc2ccccc2)CC1 : 1.81

###

- experiment: in vitro
- test_parameters: SD, HW or BN, rat, plasma
Would you mind telling me the reported fraction unbound at 5 h of each entry?
Answers are plain numbers.

Look over these answered cases.
[[record]]
compound = "Cc1cc(CN2Cc3ccccc3C2C(=O)Nc2ccc(Cl)cc2Cl)ccc1OCC(=O)O (stereo unspecified)"
readout = "fraction unbound at 5 h"
measured_result = 0.0014

[[record]]
compound = "CC1=C(C(=O)OCc2ccccc2)C(c2cccs2)NC(=O)N1 (stereo unspecified)"
readout = "fraction unbound at 5 h"
measured_result = 0.0171

[[record]]
compound = "C[S+]([O-])Cc1ccc(C(=O)Nc2cccnc2C(=O)NCC2CCOCC2)c2ccccc12 (stereo unspecified)"
readout = "fraction unbound at 5 h"
measured_result = 0.154


Value sought for every listed compound: fraction unbound at 5 h.
1. COc1ccc(CC(=O)NCc2ccccc2-c2ccccc2C(=O)NCCc2cccnc2)cc1
2. CCOc1cc2ncc(C(N)=O)c(Nc3ccc(C)cc3F)c2cc1N1CCN(C)CC1

(A)
0.0836
0.151

Value sought for every listed compound: fraction unbound at 5 h.
1. COc1ccc(CN2CCc3c([nH]c4ccccc34)C2)cc1OC
2. CCCC(=O)Nc1ccc(OCC(O)CNC(C)C)c(C(C)=O)c1 (stereo unspecified) [ACEBUTOLOL]
3. CC(NC(=O)c1cc2ccccc2[nH]1)c1ccccc1 (stereo unspecified)

(A)
0.0418
0.711
0.0366

Value sought for every listed compound: fraction unbound at 5 h.
1. CC[C@H](NC(=O)c1c(O)c(-c2ccccc2)nc2ccccc12)c1ccccc1 [TALNETANT]
2. Cc1cc(I)cc2c1NC(C(=O)O)C1CC=CC21 (stereo unspecified)
3. CN(C(=O)Cc1ccc(S(C)(=O)=O)cc1)C1CCN(Cc2ccc(C(F)(F)F)cc2)CC1
4. O=C(O)[C@H](Cc1ccccc1)N1CCC(CN2CCC(Oc3ccc(Cl)c(Cl)c3)CC2)CC1
5. COCCOc1nc(N)c2[nH]c(=O)n(Cc3ccccc3)c2n1
6. CC(C)Oc1cc(-n2cnc3ccc(N[C@@H](CO)c4ccc(F)cn4)nc32)n[nH]1
7. COC(=O)N[C@@H](C)C#Cc1cnc(Oc2ccc(OC(C)C)cc2)s1
8. CCS(=O)(=O)c1ccc(-c2cc(C(F)(F)F)ccc2OCC(=O)O)c(C)c1

(A)
[0.0005, 0.007, 0.16, 0.183, 0.376, 0.186, 0.0051, 0.0705]

Value sought for every listed compound: fraction unbound at 5 h.
1. Cc1ccc(S(=O)(=O)Nc2c(C(=O)NC3CCCCC3)c(C)nn2-c2ccccc2)cc1
2. O=C(CCCc1ccc2cccnc2n1)NCc1cc(-c2ccc(F)c(C(F)(F)F)c2)no1
3. Cc1nc(C(C)C)c(C(N)=O)nc1-c1ccc([C@H]2CC[C@H](CC(=O)O)CC2)cc1
4. Cc1nc2ccc(NS(=O)(=O)c3ccc4c(c3)OCCO4)cc2s1
5. CN(CCNCCc1ccc(O)c2[nH]c(=O)sc12)C(=O)CCOCCc1ccccc1

(A)
[0.0214, 0.0119, 0.0119, 0.0067, 0.208]
